Test system: Pseudomonas aeruginosa ATCC 27853
Test: Antibacterial activity, MIC
Type: cell-based
Details: ATCC27853, ATCC 27853, agar two-fold dilution, 37° C., 20 hours, read-out: MIC
Please go through the items and note down their MIC.
# output: numeric value plus its unit

Some entries whose results are on file:
1. CCO/N=C(\C(=O)NC1C(=O)N2C(C(=O)[O-])=C(CSc3nc(N)cc(N)[n+]3C)CSC12)c1csc(N)n1 (stereo not shown) [Compound I-11]	4 µg/mL
2. CCc1c(N)nc(SCC2=C(C(=O)[O-])N3C(=O)C(NC(=O)/C(=N\OC(C)(C)C(=O)O)c4csc(N)n4)C3SC2)[n+](CC)c1N (stereo not shown) [Compound I-33]	2 µg/mL
3. C=CC[n+]1c(N)cc(N)nc1SCC1=C(C(=O)[O-])N2C(=O)C(NC(=O)/C(=N\OC(C)C(=O)O)c3csc(N)n3)C2SC1 (stereo not shown) [Compound I-6]	2 µg/mL
4. CC[n+]1c(N)cc(N)nc1SCC1=C(C(=O)[O-])N2C(=O)C(NC(=O)/C(=N\OC(C)(C)C(=O)O)c3csc(N)n3)C2SC1 (stereo not shown) [Compound I-2]	1 µg/mL
5. CC[n+]1c(N)cc(N)nc1SCC1=C(C(=O)[O-])N2C(=O)C(NC(=O)/C(=N\OCC(=O)O)c3csc(N)n3)C2SC1 (stereo not shown) [Compound I-8]	2 µg/mL
6. CC[n+]1c(N)cc(N)nc1SCC1=C(C(=O)[O-])N2C(=O)C(NC(=O)/C(=N\OC(C)C(=O)O)c3csc(N)n3)C2SC1 (stereo not shown) [Compound I-5]	1 µg/mL
7. CC(C)(O/N=C(\C(=O)NC1C(=O)N2C(C(=O)[O-])=C(CSc3nc(N)cc(N)[n+]3-c3ccccc3)CSC12)c1csc(N)n1)C(=O)O (stereo not shown) [Compound I-35]	2 µg/mL
8. Cc1c(N)nc(SCC2=C(C(=O)[O-])N3C(=O)C(NC(=O)/C(=N\OC(C)(C)C(=O)O)c4csc(N)n4)C3SC2)[n+](C)c1N (stereo not shown) [Compound I-30]	2 µg/mL

For every item in the list below, what is its measured MIC?
1. CCO/N=C(\C(=O)NC1C(=O)N2C(C(=O)[O-])=C(CSc3nc(N)cc(N)[n+]3N)CSC12)c1csc(N)n1 (stereo not shown) [Compound I-16]
2. C[n+]1c(N)cc(N)nc1SCC1=C(C(=O)[O-])N2C(=O)C(NC(=O)/C(=N\OCC(=O)O)c3csc(N)n3)C2SC1 (stereo not shown) [Compound I-7]
3. C=CC[n+]1c(N)cc(N)nc1SCC1=C(C(=O)[O-])N2C(=O)C(NC(=O)/C(=N\OC(C)(C)C(=O)O)c3csc(N)n3)C2SC1 (stereo not shown) [Compound I-3]

Response:
1. 2 µg/mL
2. 2 µg/mL
3. 2 µg/mL

Hey, just so you know, these numbers are from patent US5202315A.
